molecular target: Alkaline phosphatase, tissue-nonspecific isozyme (Homo sapiens) (UniProt P05186); assay: human TNAP activity change by analogs – biochemical, selectivity assay for mouse IAP activator project, SAR follow-up (AID 493133); conditions: purified human TNAP enzyme, phosphatase activity counter-screen
Sequence (P05186 whole entry, looked up): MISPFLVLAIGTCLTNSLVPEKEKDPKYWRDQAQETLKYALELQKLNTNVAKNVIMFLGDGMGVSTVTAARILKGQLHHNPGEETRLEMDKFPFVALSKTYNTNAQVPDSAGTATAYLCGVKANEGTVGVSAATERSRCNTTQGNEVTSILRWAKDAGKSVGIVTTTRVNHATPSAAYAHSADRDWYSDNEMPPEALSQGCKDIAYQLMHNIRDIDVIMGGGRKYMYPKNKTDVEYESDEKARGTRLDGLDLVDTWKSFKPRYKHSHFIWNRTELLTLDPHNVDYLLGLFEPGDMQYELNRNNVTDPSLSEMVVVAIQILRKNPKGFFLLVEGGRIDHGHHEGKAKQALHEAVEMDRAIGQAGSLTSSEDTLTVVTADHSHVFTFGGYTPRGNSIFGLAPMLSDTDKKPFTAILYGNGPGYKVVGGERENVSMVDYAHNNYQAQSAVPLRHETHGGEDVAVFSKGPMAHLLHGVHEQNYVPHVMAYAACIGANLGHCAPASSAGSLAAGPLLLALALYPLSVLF
Active and inactive are the calls of the source. No rule for the calls is given here.
Listed below: EC50 values for each entry.

O=C(CN1C(=O)/C(=C/c2ccco2)SC1=S)Nc1ccc(O)c(C(=O)O)c1: > 100 µM (inactive)
Cc1ccc(NC(=O)CCNS(=O)(=O)c2ccc3[nH]c(=O)oc3c2)cc1N(C)C: > 100 µM (inactive)
COc1cccc(/C=N/NC(=O)c2cc(O)c(O)c(O)c2)c1: > 100 µM (inactive)
COC(=O)NNC(=O)c1cc(OC)c(OC)c(OC)c1: > 100 µM (inactive)

Bench note: what EC50 did O=C(CN1C(=O)/C(=C/c2ccco2)SC1=S)Nc1ccc(C(=O)O)c(O)c1 show?
> 100 µM (inactive)

Query: EC50; subject: O=C(CN1C(=O)/C(=C\c2ccco2)SC1=S)Nc1cccc(C(=O)O)c1
> 100 µM (inactive)

Please report the recorded EC50 for N#Cc1c(SCC(=O)NCc2ccc3c(c2)OCO3)sc2c(O)cc(=O)[nH]c12 .
> 100 µM (inactive)

Quick one: EC50 for COc1ccccc1CNC(=O)CCNS(=O)(=O)c1ccc2[nH]c(=O)oc2c1 ?
> 100 µM (inactive)

EC50 lookup needed for COc1ccc(NC(=O)CCNS(=O)(=O)c2ccc3[nH]c(=O)oc3c2)cc1Cl , thanks.
> 100 µM (inactive)

Given O=C(NN=Cc1cccnc1)c1cc(O)c(O)c(O)c1 , state its recorded EC50.
> 100 µM (inactive)

Origin of the recorded values: PubChem BioAssay AID493133
